src = patent US11819556B2

- condition-notes: 24 hours after mixing; 0.03 mCi/ml, excipient 1 mg/ml in sodium acetate-acetic acid buffer pH 5.80, 25° C.
Listed here: items and their measured Percentage of ^225Ac present in [^225Ac]Ac-DOTA-TATE.
Reply numerically in %, unit not repeated.

Use these answered entries as a reference point.
> print(dat)
                                   molecule  value.observed
1  O=C(O)CCCC[C@@H]1CCSS1 (racemic) [Lipoic Acid]           92.97
2          O=C(O)c1ccccc1O [Salicylic Acid]           93.08
3             N[C@H](CS)C(=O)O [D-Cysteine]           93.45

Which value of Percentage of ^225Ac present in [^225Ac]Ac-DOTA-TATE has been reported for N[C@@H](CCC(=O)N[C@@H](CS)C(=O)NCC(=O)O)C(=O)O [L-Glutathione] in the records?
91.18

Endpoint output: Percentage of ^225Ac present in [^225Ac]Ac-DOTA-TATE of O=C(O)CC(O)(CC(=O)O)C(=O)O [Citric Acid] . Value?
90.20

Field request: Percentage of ^225Ac present in [^225Ac]Ac-DOTA-TATE | item: O=C(O)CN(CCN(CC(=O)O)CC(=O)O)CCN(CC(=O)O)CC(=O)O [DTPA, Diethylenetriaminepentaacetic acid]
95.77

// lookup Percentage of ^225Ac present in [^225Ac]Ac-DOTA-TATE for CC(=O)N[C@@H](CS)C(=O)O [N-Acetyl-L-Cysteine]
91.19

Recorded Percentage of ^225Ac present in [^225Ac]Ac-DOTA-TATE of CSCC[C@H](N)C(=O)O [L-Methionine] , please.
93.39

Please look up its Percentage of ^225Ac present in [^225Ac]Ac-DOTA-TATE: O=S([O-])O.[Na+] [Sodium Bisulfite]
0

Requested read-out: Percentage of ^225Ac present in [^225Ac]Ac-DOTA-TATE. Entry: CCO [10% EtOH, EtOH]
96.35

Fill in: Percentage of ^225Ac present in [^225Ac]Ac-DOTA-TATE of NCCCC[C@H](N)C(=O)O [L-Lysine] is ___
95.45

====

Catalogue of Percentage of ^225Ac present in [^225Ac]Ac-DOTA-TATE values
- condition-notes: 48 hours after mixing; 0.03 mCi/ml, excipient 1 mg/ml in sodium acetate-acetic acid buffer pH 5.80, 25° C.
Report as a plain number; the unit % is understood.

The examples below pair each entry with its known result.
> print(dat)
                                   molecule  value.observed
1  CC(=O)N[C@@H](CS)C(=O)O [N-Acetyl-L-Cysteine]           87.41
2            NCCCC[C@H](N)C(=O)O [L-Lysine]           89.52
3  O=C(O)CC(O)(CC(=O)O)C(=O)O [Citric Acid]           82.18
4  O=C1O[C@H]([C@@H](O)CO)C([O-])=C1O.[Na+] [Sodium Ascorbate, pH 5.8, Sodium Ascorbate]           92.21
5                        Oc1ccccc1 [Phenol]           87.88

Okay, now this molecule:
Need Percentage of ^225Ac present in [^225Ac]Ac-DOTA-TATE, item CCO [10% EtOH, EtOH]
92.16

====

Listed next: entries and their corresponding Percentage of ^225Ac present in [^225Ac]Ac-DOTA-TATE.
- condition-notes: 48 hours after mixing; 0.03 mCi/ml, excipient 1 mg/ml in sodium acetate-acetic acid buffer pH 5.80, 25° C.

> print(dat)
                                   molecule  value.observed
1  O=C(O)CN(CCN(CC(=O)O)CC(=O)O)CCN(CC(=O)O)CC(=O)O [DTPA, Diethylenetriaminepentaacetic acid]          91.38%
2  N[C@@H](CCC(=O)N[C@@H](CS)C(=O)NCC(=O)O)C(=O)O [L-Glutathione]          85.56%
3          O=C(O)c1ccccc1O [Salicylic Acid]          87.65%
4         CSCC[C@H](N)C(=O)O [L-Methionine]          89.58%
5  O=C(O)CCCC[C@@H]1CCSS1 (racemic) [Lipoic Acid]          87.93%

Now look at this entry.
Which Percentage of ^225Ac present in [^225Ac]Ac-DOTA-TATE reading was recorded for the molecule N[C@H](CS)C(=O)O [D-Cysteine] ?
87.66%
